This collection of values is drawn from patent US7582655B2.

# Tested on: human pulp cells (HPC)
# Measurement Protocol: in vitro

- Compound: "CC[N+](C)(CC)CCOc1ccc(C(=O)N2CC(=Cc3ccc(Cl)cc3)C(=O)C(=Cc3ccc(Cl)cc3)C2)cc1.[I-]"
  CC50: "> 400 µM"
- Compound: "O=C1C(=Cc2ccc(Cl)cc2)CNCC1=Cc1ccc(Cl)cc1"
  CC50: "130 µM"
- Compound: "Cl.O=C1C(=Cc2ccc(Cl)cc2)CN(C(=O)c2ccc(OCCN3CCOCC3)cc2)CC1=Cc1ccc(Cl)cc1 [Compound 6b, hydrochloride]"
  CC50: "> 400 µM"
